// data source = patent US20240116985A1

# log10 of EC50 values compiled below
test-system: full-length beta-Catenin (Uniprot ID P35222) (Homo sapiens (Human)) (UniProt P35222)
Sequence (P35222 whole entry): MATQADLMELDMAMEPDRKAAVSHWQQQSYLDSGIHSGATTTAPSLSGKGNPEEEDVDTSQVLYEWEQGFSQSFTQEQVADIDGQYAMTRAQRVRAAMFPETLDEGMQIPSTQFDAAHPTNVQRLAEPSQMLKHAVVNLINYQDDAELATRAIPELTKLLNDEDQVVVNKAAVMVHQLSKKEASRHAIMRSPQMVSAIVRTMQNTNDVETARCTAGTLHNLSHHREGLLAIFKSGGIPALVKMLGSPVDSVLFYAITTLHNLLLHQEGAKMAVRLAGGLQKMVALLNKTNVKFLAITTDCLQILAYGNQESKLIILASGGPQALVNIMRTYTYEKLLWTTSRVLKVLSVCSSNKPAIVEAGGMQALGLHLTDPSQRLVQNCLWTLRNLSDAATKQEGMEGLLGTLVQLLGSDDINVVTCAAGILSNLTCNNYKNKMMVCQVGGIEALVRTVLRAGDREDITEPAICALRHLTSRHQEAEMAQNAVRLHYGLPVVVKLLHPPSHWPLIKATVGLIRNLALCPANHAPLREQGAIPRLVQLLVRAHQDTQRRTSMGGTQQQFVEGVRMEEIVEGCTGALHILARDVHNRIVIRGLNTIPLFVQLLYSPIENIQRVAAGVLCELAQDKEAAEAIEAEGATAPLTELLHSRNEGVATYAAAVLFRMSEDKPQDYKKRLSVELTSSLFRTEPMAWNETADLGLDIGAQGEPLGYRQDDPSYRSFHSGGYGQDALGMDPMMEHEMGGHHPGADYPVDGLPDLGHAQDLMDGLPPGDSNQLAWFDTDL
assay-name: AlphaScreen competition vs biotin-TCF4(10-53) on full-length beta-catenin
Starred links: 1 amine or outer side, 2 acyl side, 3 side chain; linkers in the order of their positions; H or OH if unused. Positions of bridges follow the written chain, without caps; N, C: chain ends. Non-standard residues stand in square brackets, D forms with d. Primed or numbered codes have the meaning given here. B5(4) = 2,2-bis(4-pentenyl)glycine = 2-amino-2-(pent-4-en-1-yl)hept-6-enoic acid (stitching residue), C=CCCCC(CCCC=C)(N[*:1])C(=O)[*:2]; TfeGA = (S)-2-amino-3-((carboxymethyl)(2,2,2-trifluoroethyl)amino)propanoic acid, O=C([C@H](CN(CC(=O)[*:3])CC(F)(F)F)N[*:1])[*:2]; 2Nal = N[C@@H](Cc1ccc2ccccc2c1)C(=O)O; Bta = N[C@@H](Cc1csc2ccccc12)C(=O)O; αAllylPro = C=CC[C@@]1(C(=O)O)CCCN1; S8 = C=CCCCCCC[C@](C)(N)C(=O)O
endpoint: log10 of EC50 (log10 of the value in µM)

>>> numeric_readout("Ac-[αAllylPro]DA[B5(4)]D[2Nal]AAFS[S8]F[Bta]Q-NH2 (staple 1-4, 4-11) [I-298]")
0.59
>>> numeric_readout("Ac-[αAllylPro]DA[B5(4)]D[2Nal]AAFQ[S8]F[Bta]A-NH2 (staple 1-4, 4-11) [I-296]")
0.28
>>> numeric_readout("Ac-[αAllylPro]DA[B5(4)]D[2Nal]AAFV[S8]F[Bta]Q-NH2 (staple 1-4, 4-11) [I-297]")
0.76
>>> numeric_readout("Ac-[αAllylPro]DA[B5(4)]D[2Nal]AAFQ[S8]F[Bta]Q-NH2 (staple 1-4, 4-11) [I-295]")
0.07
>>> numeric_readout("Ac-[αAllylPro]DA[B5(4)]D[TfeGA]AAFV[S8]F[Bta]Q-NH2 (staple 1-4, 4-11) [I-293]")
-1.39
